Measured Kd, listed per entry.
Molecular target: T1, cyno IL-23 (cyno, limits assumed)
T1 construct: Heterodimer of p19 and p40; also called cynomolgus IL-23
T1 chain 1: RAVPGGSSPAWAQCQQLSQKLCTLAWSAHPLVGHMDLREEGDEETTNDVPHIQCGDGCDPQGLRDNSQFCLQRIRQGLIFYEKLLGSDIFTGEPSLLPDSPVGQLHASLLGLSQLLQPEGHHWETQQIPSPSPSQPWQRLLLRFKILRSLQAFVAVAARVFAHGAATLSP
T1 chain 2: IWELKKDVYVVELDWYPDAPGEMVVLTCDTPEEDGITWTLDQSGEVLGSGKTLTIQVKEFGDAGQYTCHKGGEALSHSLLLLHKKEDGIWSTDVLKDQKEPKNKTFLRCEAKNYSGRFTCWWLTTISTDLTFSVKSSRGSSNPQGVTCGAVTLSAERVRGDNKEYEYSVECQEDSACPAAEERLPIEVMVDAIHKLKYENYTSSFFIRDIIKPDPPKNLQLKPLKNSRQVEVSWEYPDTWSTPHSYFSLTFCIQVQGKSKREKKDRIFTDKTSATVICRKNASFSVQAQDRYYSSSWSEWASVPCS
Experiment: SPR Biacore T100, mAb from HEK supernatant captured on anti-human IgG, one concentration of cyno IL-23 (256 nM)

{"columns": ["binder", "Kd (nM)"],
 "data": [
  ["A5M20 (antibody, human IgG1, kappa, V domains shown) VH: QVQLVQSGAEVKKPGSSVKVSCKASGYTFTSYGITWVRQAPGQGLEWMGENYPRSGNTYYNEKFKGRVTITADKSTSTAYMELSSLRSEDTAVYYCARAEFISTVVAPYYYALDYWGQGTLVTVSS VL: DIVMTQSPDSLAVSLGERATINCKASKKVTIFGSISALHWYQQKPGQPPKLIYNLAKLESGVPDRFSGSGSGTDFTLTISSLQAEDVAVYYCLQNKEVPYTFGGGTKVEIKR", 0.115],
  ["A5M21 (antibody, human IgG1, kappa, V domains shown) VH: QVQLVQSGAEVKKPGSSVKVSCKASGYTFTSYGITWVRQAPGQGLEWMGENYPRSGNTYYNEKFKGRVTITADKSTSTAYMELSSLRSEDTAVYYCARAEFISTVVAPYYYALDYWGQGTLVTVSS VL: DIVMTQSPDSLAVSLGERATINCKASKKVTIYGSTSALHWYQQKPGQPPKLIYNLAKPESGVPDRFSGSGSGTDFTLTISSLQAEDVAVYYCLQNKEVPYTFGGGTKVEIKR", 0.169],
  ["A3M18 (antibody, human IgG1, kappa, V domains shown) VH: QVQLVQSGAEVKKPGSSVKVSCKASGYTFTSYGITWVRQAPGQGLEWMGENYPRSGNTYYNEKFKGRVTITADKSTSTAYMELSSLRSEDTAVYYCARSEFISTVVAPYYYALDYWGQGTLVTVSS VL: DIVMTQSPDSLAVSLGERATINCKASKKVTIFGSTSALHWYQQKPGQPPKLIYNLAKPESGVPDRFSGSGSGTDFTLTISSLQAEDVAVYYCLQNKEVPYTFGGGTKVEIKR", 0.185]
]}
